- TARGET UNDER TEST: SARS-CoV-1 spike protein on pseudovirus (SARS-CoV-1, UniProt P59594 14-1255)
- METHOD SUMMARY: cell-based or functional assay
QUANTITY MEASURED: Pseudovirus Neturalization

Any idea what its Pseudovirus Neturalization is? The binder is AB-009271 (antibody, V domains shown) VH: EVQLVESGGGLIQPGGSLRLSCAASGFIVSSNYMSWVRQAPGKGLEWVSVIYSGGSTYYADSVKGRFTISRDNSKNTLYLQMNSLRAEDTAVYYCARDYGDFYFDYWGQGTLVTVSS VL: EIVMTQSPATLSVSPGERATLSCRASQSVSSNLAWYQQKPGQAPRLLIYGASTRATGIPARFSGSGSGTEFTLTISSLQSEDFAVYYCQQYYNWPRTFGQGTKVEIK
> 50 µg/mL

Record: AB-009281 (antibody, V domains shown) VH: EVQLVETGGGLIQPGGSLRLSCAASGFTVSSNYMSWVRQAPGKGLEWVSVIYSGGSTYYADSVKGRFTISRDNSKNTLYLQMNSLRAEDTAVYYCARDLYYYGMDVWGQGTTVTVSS VL: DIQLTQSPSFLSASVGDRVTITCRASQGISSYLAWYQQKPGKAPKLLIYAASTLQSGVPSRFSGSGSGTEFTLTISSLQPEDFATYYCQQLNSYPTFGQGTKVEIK
> 50 µg/mL

Record: AB-009734 (antibody, V domains shown) VH: QVHLVQSGAEVKTPGASVRVSCKASGYTFTSHYMHWVRQAPGQGLEWMGLINPSGSGTAYPQHFQGRVTMTRDTSTTTDYMDLSSLRSEDTAMYFCARMERSGAFDLWGQGTMVTVSS VL: EIVLTQSPGTLSLSPGERATLSCRASQTISSRYLAWYYQKPGQAPRLLIQGSSIRATGIPDRFSGSGSGTDFTLTISRLEPEDFAVYYCQHYGSSPPMYTFGQGTKLEIK
> 50 µg/mL
